target: T1, 4-1BB Fc (human, UniProt Q07011 24-183); assay: ELISA, 4-1BB Fc coated, VHH at 0.00005 nM
T1 construct: also called rh-41BB; 41BB-hFc
T1 sequence (Q07011 24-183): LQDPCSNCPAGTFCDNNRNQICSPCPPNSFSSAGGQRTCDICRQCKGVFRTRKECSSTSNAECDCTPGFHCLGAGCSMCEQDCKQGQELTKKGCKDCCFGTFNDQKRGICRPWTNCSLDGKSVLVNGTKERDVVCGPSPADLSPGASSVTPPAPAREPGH
Property Measured: OD450

Binder: 4-1BB-9 (VHH, not shown: small tags and cut ends) VHH: QVQLVESGGGLVQAGGSLRLSCAASGSIFSYNAVAWYRQAPGKQRELVAVITSGGETTKYADSVKGRFTISRDITKNAVDLQMVSLKPEDTAVYTCAALRNSGSTSWGQGTQVTVSS
OD450: 0.07

Binder: 4-1BB-3 (VHH, not shown: small tags and cut ends) VHH: EVQLVESGGGLVQAGGSLRLSCAASGNIFSYNGMAWYRQAPGNQRELVAVVAIDGTAKYADTVKGRFTISRDNIKNTVNLEMNSLKPEDTAVYTCAALRNSGSTSWGQGTQVTVSS
OD450: 0.066

Binder: 4-1BB-39 (VHH, not shown: small tags and cut ends) VHH: QVQLGSLGGGSAQPGGSLRLSCTGSGNVYDFVVMGWYRQFPGRQRELVANITGRASPNYVDSVKGRFTISRDNAQNTVHLQMNNLKVEDSAIYYCYAAQQLTTIAGVMTLDYWGSGTQVTVSS
OD450: 0.063

Binder: 4-1BB-36 (VHH, not shown: small tags and cut ends) VHH: EVQLVESGGGLVQPGGSLRLSCAASRRTFSSYTAGWFRQAPGKEREFVASIRWISGTTTYADSVNGRFTISRDIAKNTVYLQMNSLKPDDTAVYYCAVDLSSDNDYDYWGQGTQVTVSS
OD450: 0.073
